- System: Escherichia coli
- Measurement description: Selectivity of inhibitory activity of Methionine aminopeptidase 1 from Escherichia coli to Methionine aminopeptidase 1 from Saccharomyces cerevisiae
Would you please tag the item true (1) when its Ratio is 0.6 or above, and false (0) when it is below?

Solved cases (5 shown):
Compound	Category label
O=C(Oc1cccnc1C(=O)Nc1nccs1)c1cccc(F)c1	false (0)
O=C(Nc1cccnc1C(=O)Nc1nccs1)c1ccc(F)cc1	false (0)
O=C(Oc1cccnc1C(=O)Nc1nccs1)c1cccc([N+](=O)[O-])c1	false (0)
C/C=C(\C)C(=O)Oc1cccnc1C(=O)Nc1nccs1	true (1)
O=C(Cc1ccccc1)Oc1cccnc1C(=O)Nc1nccs1	true (1)

Task: Tell me whether Ratio is at least 0.6 here: CC(C)(C)C(=O)Oc1cccnc1C(=O)Nc1nccs1
Output: true (1)

Task: Tell me whether Ratio is at least 0.6 here: O=C(Oc1cccnc1C(=O)Nc1nccs1)c1ccc(F)c(Br)c1
Output: true (1)

Task: Tell me whether Ratio is at least 0.6 here: O=C(Nc1cccnc1C(=O)Nc1nccs1)c1ccccc1F
Output: false (0)

Task: Tell me whether Ratio is at least 0.6 here: C=CCC(=O)Nc1cccnc1C(=O)Nc1nccs1
Output: false (0)

Task: Tell me whether Ratio is at least 0.6 here: O=C(Cc1ccccc1)Nc1cccnc1C(=O)Nc1nccs1
Output: false (0)
